- System: NOMO1
- procedure details: cell viability relative to DMSO control; higher = less cytotoxic
- cond: RPMI 5 mM glucose + 10% dialyzed FBS; 48 h; 5.12 µM
Could you mark each record true (1) if its cell viability falls strictly under 90%, and false (0) if it equals or exceeds it?

1. CON(C)C(=O)N1\N=C(/S[C@]1(CCCN)C2=CC=CC=C2)C3=CC(=CC=C3F)F
true (1)
2. CCCCc1ccc(N[S+](=O)([O-])c2ccc(C)c(C(=O)N3CCN(c4cccc(C)c4C)CC3)c2)cc1
false (0)
3. O=C1N\N=C(\C[C@@H]2CCN(C2)C(=O)C3CC3)N1C4=CC=C(C=C4)C5=CC=C6OC=CC6=C5
true (1)
4. CCOC\1=C(/C(=O)NC2=CC=C(OC3=C(Cl)C(=NC=C3)N)C(=C2)F)C(=O)N(\C=C1)C4=CC=C(F)C=C4
false (0)

Consider now this further molecule.
(Q) A record lists `COC1=CC2=C(C=C1CC3=C(F)C(=CC=C3)Cl)C(=O)\C(=C/N2[C@H](CO)C(C)C)C(O)=O` . Is its cell viability below 90%?
(A) false (0)

---

Recorded cell viability, one value per entry.
- Tested on: P12-Ichikawa
- procedure details: cell viability relative to DMSO control; higher = less cytotoxic
- cond: RPMI 5 mM glucose + 10% dialyzed FBS; 48 h; 0.00234 µM

// solved cases for cell viability follow
1. CC(C)C[C@@H](C(=O)N[C@H](C(=O)OC1CCCC1)c1ccccc1)[C@H](O)C(=O)NO
113%
2. CNC(=O)c1cc(Oc2ccc(NC(=O)Nc3ccc(Cl)c(C(F)(F)F)c3)c(F)c2)ccn1
89.9%
3. COc1ccccc1N1CCN(CC(O)COc2cccc3ccccc23)CC1 (stereo not given)
123%
4. COC1=C(CC=C(C)C)C2=C(\C=C/C(=O)O2)C=C1
123%

Query compound follows.
(Q) Quick one: cell viability for `NC(=O)[C@@H](CCC(F)(F)F)N(Cc1ccc(-c2ncon2)cc1F)[S+](=O)([O-])c1ccc(Cl)cc1` ?
(A) 88.2%

---

- Tested on: NOMO1
- procedure details: AUC of viability dose-response curve (% viability x log10 dose units); higher = less sensitive
- cond: HPLM + 10% dialyzed FBS; 48 h
Classify: 1.0 when AUC of viability dose-response curve is strictly less than 400; 0.0 when AUC of viability dose-response curve is not.

Sample answers from the record:
1) CC(=O)OCC(CCn1cnc2cnc(N)nc21)COC(C)=O
0.0
2) CC1CCN(c2cc(N3CCN(C)CC3)ccc2NC(=O)c2cc(C#N)c[nH]2)CC1
0.0
3) CC(C)(OCc1nn(Cc2ccccc2)c2ccccc12)C(=O)O
0.0
4) CCN(CC)Cc1ccc2cc(COC(=O)Nc3ccc(C(=O)NO)cc3)ccc2c1
1.0

(Q) Please check: AUC of viability dose-response curve for `CCC1=C2CN3C(=O)\C4=C(/C=C3/C2=NC5=CC=C(O)C=C15)[C@@](O)(CC)C(=O)OC4` , strictly under 400 or not?
(A) 1.0

(Q) AUC of viability dose-response curve under 400? Item: `O=C(O)CCc1ccc(NCc2cccc(Oc3ccccc3)c2)cc1`
(A) 0.0

---

- Test system: SEM cells
- procedure details: cell viability relative to DMSO control; higher = less cytotoxic
- cond: RPMI 5 mM glucose + 10% FBS; 48 h; 1.71 µM
readout kind: cell viability (%)
Expressed in %, but write only the number.

(Q) What cell viability value was documented for this compound, COc1ccc(CC2SC(=O)NC2=O)cc1C(=O)NCc1ccc(C(F)(F)F)cc1 (centres undefined) ?
(A) 106

(Q) Which cell viability value belongs to Oc1ccc(C2CNCCc3c2cc(O)c(O)c3Cl)cc1 (centres undefined) ?
(A) 47.5

(Q) Which cell viability is reported for this compound? `C\C1=N\N(C(=O)C1)C2=CC=CC=C2`
(A) 123

(Q) Reported cell viability, compound `COC1=CC(=C2C(=O)N(COC/3=C/C(=O)N4\C=C/C=C(OCCN5CCCCC5)\C4=N3)[S+]([O-])(=O)C2=C1)C(C)C` : ____
(A) 71

---

- Test system: P12-Ichikawa
- procedure details: cell viability relative to DMSO control; higher = less cytotoxic
- cond: RPMI 5 mM glucose + 10% dialyzed FBS; 48 h; 5.12 µM
readout kind: cell viability (%)
Number in %, nothing else.

Study these solved cases before continuing.
1. CC/C(=C(\c1ccccc1)c1ccc(OCCN(C)C)cc1)c1ccccc1
104
2. O=C(/C=C/c1cccnc1)NCCCCC1CCN(C(=O)c2ccccc2)CC1
3.92
3. Cc1cccc(Nc2nc(N[C@@H]3CCCC[C@@H]3N)ncc2C(N)=O)c1
24.3
4. CN(C)c1ccccc1CN1CCCN(Cc2ccccc2N(C)C)C1c1ccncc1
101
5. O=C(Nc1ccncc1)C(=O)c1cn(Cc2ccc(Cl)cc2)c2ccccc12
34.6
6. CC1CCN(c2cc(N3CCN(C)CC3)ccc2NC(=O)c2cc(C#N)c[nH]2)CC1
106
7. CNC(=O)c1cc(COc2nnc(Nc3ccc(Cl)cc3)c3ccoc23)ccn1
111
8. COc1ccccc1N1CCN(CC(O)COc2cccc3ccccc23)CC1 (centres undefined)
107

Read the next record carefully.
(Q) Given the entry `CC(C)(OCc1nn(Cc2ccccc2)c2ccccc12)C(=O)O` , report its measured cell viability.
(A) 88.8

---

- System: NOMO1
- procedure details: cell viability relative to DMSO control; higher = less cytotoxic
- cond: HPLM + 10% dialyzed FBS; 48 h; 0.00234 µM
readout kind: cell viability

Example entries begin here.
1) CON(C)C(=O)N1\N=C(/S[C@]1(CCCN)C2=CC=CC=C2)C3=CC(=CC=C3F)F
41.6%
2) O=C(N[C@H]1CN2CCC1CC2)c1ccc(Cl)cc1
106%
3) O=C(/C=C/c1cccnc1)NCCCCC1CCN(C(=O)c2ccccc2)CC1
59.8%
4) O=C1CCc2cc(OCCCCc3nnnn3C3CCCCC3)ccc2N1
86.5%
5) Cc1ccc(Nc2nccc(N(C)c3ccc4c(C)n(C)nc4c3)n2)cc1[S+](N)(=O)[O-]
118%
6) O=P1(NCCCl)OCCCN1CCCl (centres undefined)
102%
7) c1cc(N[C@@H]2CCNC2)nc(-c2cnc3ccc(-c4cn[nH]c4)cn23)c1
119%
8) O=C(O)c1nn(Cc2ccc(Cl)cc2Cl)c2ccccc12
116%

Kindly review the next molecule as well.
(Q) Reported cell viability, molecule `COc1cc([S+](C)(=O)[O-])ccc1Nc1nc2ccc(-c3ccc(NC(=O)[C@H](C)c4ccc(F)cc4)cc3)cn2n1` : ____
(A) 120%

---

- System: SEM cells
- procedure details: cell viability relative to DMSO control; higher = less cytotoxic
- cond: HPLM + 10% dialyzed FBS; 48 h; 0.00234 µM
The label criterion met is reserved for cell viability strictly under 90%; criterion not met covers values equal to or above it.

1) COc1ccc(CC2SC(=O)NC2=O)cc1C(=O)NCc1ccc(C(F)(F)F)cc1 (stereo not drawn)
criterion met

(Q) For `CON(C)C(=O)N1\N=C(/S[C@]1(CCCN)C2=CC=CC=C2)C3=CC(=CC=C3F)F` , is the recorded cell viability below the cut-off of 90%?
(A) criterion met

(Q) Given the entry `CCN(CC)CCNC(=O)c1ccc2nc(-c3ccccc3)c(-c3ccc(CN4CCC(n5c(=O)[nH]c6ccccc65)CC4)cc3)nc2c1` , would its reported cell viability be below 90%?
(A) criterion not met

---

In this section we review reported cell viability values for a set of compounds.
- Tested on: NOMO1
- procedure details: cell viability relative to DMSO control; higher = less cytotoxic
- cond: RPMI 5 mM glucose + 10% FBS; 48 h; 1.71 µM
Unit % implied. Number only.

(Q) Data request, read-out cell viability, for `O=C(O)CCCc1ccc(N(CCCl)CCCl)cc1`
(A) 132

(Q) Find the recorded cell viability belonging to O=P1(NCCCl)OCCCN1CCCl (stereo not drawn) and report it.
(A) 86.8

(Q) Entry under review: `NCC/1=C/NC(=S)N1[C@H]2CCC3=C(F)C=C(F)C=C3C2` . Reported cell viability?
(A) 106

---

- System: P12-Ichikawa
- procedure details: cell viability relative to DMSO control; higher = less cytotoxic
- cond: HPLM + 10% dialyzed FBS; 48 h; 0.000781 µM
readout kind: cell viability (%)
Record the value in %, omitting the unit from your answer.

# example entries with known answers
1. c1cc(N[C@@H]2CCNC2)nc(-c2cnc3ccc(-c4cn[nH]c4)cn23)c1
116
2. CCC[S+](=O)([O-])Nc1ccc(F)c(C(=O)c2c[nH]c3ncc(-c4ccc(Cl)cc4)cc23)c1F
116
3. O=C1N\N=C(\C[C@@H]2CCN(C2)C(=O)C3CC3)N1C4=CC=C(C=C4)C5=CC=C6OC=CC6=C5
79.6
4. COC1=CC=CC(=C1/C2=N/CC3=C(N=C(NC4=CC(=C(C=C4)C(O)=O)OC)N=C3)C5=CC=C(Cl)C=C25)F
82.2

Now look at this one.
(Q) What value of cell viability has been recorded for this entry: O=P1(NCCCl)OCCCN1CCCl (stereo not given)
(A) 84
